# Tested on: PXR homodimer (NR concentration 270 nM)
# assay explanation: PBM binding z-score (relative to random genomic background probes); higher = stronger binding; sequences stand for … in GC…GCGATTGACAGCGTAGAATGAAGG
# binning rule on PBM binding z-score: lo = under -0.2, mid = from -0.2 up to 0.2, hi = 0.2 and over

>  <chain>
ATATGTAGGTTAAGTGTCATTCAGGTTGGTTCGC

>  <class name>
hi

$$$$
>  <chain>
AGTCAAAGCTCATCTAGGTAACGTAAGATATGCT

>  <class name>
lo

$$$$
>  <chain>
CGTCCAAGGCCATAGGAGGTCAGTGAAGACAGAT

>  <class name>
hi

$$$$
>  <chain>
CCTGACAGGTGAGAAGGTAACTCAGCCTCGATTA

>  <class name>
mid

$$$$
>  <chain>
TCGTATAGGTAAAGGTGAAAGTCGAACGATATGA

>  <class name>
mid

$$$$
>  <chain>
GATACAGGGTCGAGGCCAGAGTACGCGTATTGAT

>  <class name>
lo

$$$$
>  <chain>
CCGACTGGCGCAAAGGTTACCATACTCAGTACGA

>  <class name>
lo

$$$$
>  <chain>
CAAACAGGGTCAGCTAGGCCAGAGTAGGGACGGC

>  <class name>
mid

$$$$
>  <chain>
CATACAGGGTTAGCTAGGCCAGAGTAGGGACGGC

>  <class name>
lo

$$$$
>  <chain>
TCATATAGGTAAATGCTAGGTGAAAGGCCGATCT

>  <class name>
hi

$$$$
>  <chain>
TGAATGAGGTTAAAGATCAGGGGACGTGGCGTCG

>  <class name>
mid

$$$$

###

# Test system: PPARg:RXRa IVT, anti-PPARg (NR concentration 270 nM, RXRa partner concentration 90 nM)
# assay explanation: PBM binding z-score (relative to random genomic background probes); higher = stronger binding; sequences stand for … in GC…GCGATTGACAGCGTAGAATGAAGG
quantity measured: PBM binding z-score

>  <chain>
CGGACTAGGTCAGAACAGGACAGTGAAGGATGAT

>  <quantity measured>
PBM binding z-score

>  <recorded value>
6.53

$$$$
>  <chain>
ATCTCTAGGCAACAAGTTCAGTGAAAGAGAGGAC

>  <quantity measured>
PBM binding z-score

>  <recorded value>
0.456

$$$$
>  <chain>
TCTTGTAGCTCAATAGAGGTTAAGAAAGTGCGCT

>  <quantity measured>
PBM binding z-score

>  <recorded value>
0.506

$$$$
>  <chain>
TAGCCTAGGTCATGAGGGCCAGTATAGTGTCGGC

>  <quantity measured>
PBM binding z-score

>  <recorded value>
3.05

$$$$
>  <chain>
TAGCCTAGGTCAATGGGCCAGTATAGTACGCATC

>  <quantity measured>
PBM binding z-score

>  <recorded value>
3.19

$$$$
>  <chain>
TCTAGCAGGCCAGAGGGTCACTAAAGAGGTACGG

>  <quantity measured>
PBM binding z-score

>  <recorded value>
0.475

$$$$
>  <chain>
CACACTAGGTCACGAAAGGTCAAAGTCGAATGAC

>  <quantity measured>
PBM binding z-score

>  <recorded value>
8.37

$$$$
>  <chain>
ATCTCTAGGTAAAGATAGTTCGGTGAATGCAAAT

>  <quantity measured>
PBM binding z-score

>  <recorded value>
1.58

$$$$
>  <chain>
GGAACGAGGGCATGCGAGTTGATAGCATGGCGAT

>  <quantity measured>
PBM binding z-score

>  <recorded value>
1.98

$$$$
>  <chain>
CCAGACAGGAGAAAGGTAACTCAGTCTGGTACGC

>  <quantity measured>
PBM binding z-score

>  <recorded value>
-0.161

$$$$
>  <chain>
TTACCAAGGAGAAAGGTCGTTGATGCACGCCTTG

>  <quantity measured>
PBM binding z-score

>  <recorded value>
0.908

$$$$
>  <chain>
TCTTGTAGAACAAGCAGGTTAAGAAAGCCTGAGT

>  <quantity measured>
PBM binding z-score

>  <recorded value>
0.593

$$$$
>  <chain>
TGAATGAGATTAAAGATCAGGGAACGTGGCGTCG

>  <quantity measured>
PBM binding z-score

>  <recorded value>
-0.415

$$$$
>  <chain>
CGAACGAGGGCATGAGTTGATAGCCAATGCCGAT

>  <quantity measured>
PBM binding z-score

>  <recorded value>
2.29

$$$$
>  <chain>
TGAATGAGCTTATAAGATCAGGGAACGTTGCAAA

>  <quantity measured>
PBM binding z-score

>  <recorded value>
-0.528

$$$$
>  <chain>
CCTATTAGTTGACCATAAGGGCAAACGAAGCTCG

>  <quantity measured>
PBM binding z-score

>  <recorded value>
0.555

$$$$
>  <chain>
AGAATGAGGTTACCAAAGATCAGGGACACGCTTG

>  <quantity measured>
PBM binding z-score

>  <recorded value>
3.4

$$$$
>  <chain>
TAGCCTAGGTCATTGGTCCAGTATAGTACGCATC

>  <quantity measured>
PBM binding z-score

>  <recorded value>
2.93

$$$$
>  <chain>
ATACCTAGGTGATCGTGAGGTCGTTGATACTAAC

>  <quantity measured>
PBM binding z-score

>  <recorded value>
1.46

$$$$
>  <chain>
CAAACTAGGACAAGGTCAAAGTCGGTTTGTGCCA

>  <quantity measured>
PBM binding z-score

>  <recorded value>
5.61

$$$$
>  <chain>
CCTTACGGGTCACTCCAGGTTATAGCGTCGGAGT

>  <quantity measured>
PBM binding z-score

>  <recorded value>
3.79

$$$$
>  <chain>
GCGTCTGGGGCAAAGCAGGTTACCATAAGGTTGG

>  <quantity measured>
PBM binding z-score

>  <recorded value>
2.33

$$$$
>  <chain>
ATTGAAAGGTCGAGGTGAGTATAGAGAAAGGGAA

>  <quantity measured>
PBM binding z-score

>  <recorded value>
2.77

$$$$
>  <chain>
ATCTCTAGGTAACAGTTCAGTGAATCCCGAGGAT

>  <quantity measured>
PBM binding z-score

>  <recorded value>
3.42

$$$$
>  <chain>
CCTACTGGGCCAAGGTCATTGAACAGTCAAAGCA

>  <quantity measured>
PBM binding z-score

>  <recorded value>
4.69

$$$$
>  <chain>
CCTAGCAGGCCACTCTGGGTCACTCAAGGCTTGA

>  <quantity measured>
PBM binding z-score

>  <recorded value>
3.22

$$$$

###

# System: THRa:RXRa (NR concentration 90 nM, RXRa partner concentration 90 nM)
# assay explanation: PBM binding z-score (relative to random genomic background probes); higher = stronger binding; sequences stand for … in GC…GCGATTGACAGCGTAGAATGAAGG
quantity measured: PBM binding z-score

>  <chain>
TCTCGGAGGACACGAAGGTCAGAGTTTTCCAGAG

>  <quantity measured>
PBM binding z-score

>  <recorded value>
2.83

$$$$
>  <chain>
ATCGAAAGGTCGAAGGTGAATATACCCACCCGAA

>  <quantity measured>
PBM binding z-score

>  <recorded value>
2.52

$$$$
>  <chain>
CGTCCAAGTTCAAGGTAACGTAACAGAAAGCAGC

>  <quantity measured>
PBM binding z-score

>  <recorded value>
2.6

$$$$
>  <chain>
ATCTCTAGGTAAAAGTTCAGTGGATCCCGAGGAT

>  <quantity measured>
PBM binding z-score

>  <recorded value>
1.2

$$$$
>  <chain>
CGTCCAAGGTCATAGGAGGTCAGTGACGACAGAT

>  <quantity measured>
PBM binding z-score

>  <recorded value>
5.3

$$$$
>  <chain>
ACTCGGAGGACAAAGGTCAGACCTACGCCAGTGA

>  <quantity measured>
PBM binding z-score

>  <recorded value>
3.5

$$$$
>  <chain>
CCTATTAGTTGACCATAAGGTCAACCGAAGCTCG

>  <quantity measured>
PBM binding z-score

>  <recorded value>
4.27

$$$$
>  <chain>
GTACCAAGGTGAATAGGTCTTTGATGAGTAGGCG

>  <quantity measured>
PBM binding z-score

>  <recorded value>
1.3

$$$$
>  <chain>
CCTTACGGGTCAAGGTTATAACACGGGTGGTACG

>  <quantity measured>
PBM binding z-score

>  <recorded value>
3.06

$$$$
>  <chain>
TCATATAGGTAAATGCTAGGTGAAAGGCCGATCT

>  <quantity measured>
PBM binding z-score

>  <recorded value>
1.53

$$$$
>  <chain>
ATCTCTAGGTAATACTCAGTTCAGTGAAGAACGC

>  <quantity measured>
PBM binding z-score

>  <recorded value>
1.37

$$$$
>  <chain>
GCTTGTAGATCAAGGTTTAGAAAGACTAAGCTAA

>  <quantity measured>
PBM binding z-score

>  <recorded value>
-0.36

$$$$
>  <chain>
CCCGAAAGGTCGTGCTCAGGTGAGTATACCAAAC

>  <quantity measured>
PBM binding z-score

>  <recorded value>
4.1

$$$$
>  <chain>
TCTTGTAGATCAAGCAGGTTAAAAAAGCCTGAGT

>  <quantity measured>
PBM binding z-score

>  <recorded value>
0.589

$$$$
>  <chain>
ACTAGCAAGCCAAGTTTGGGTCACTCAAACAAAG

>  <quantity measured>
PBM binding z-score

>  <recorded value>
2.09

$$$$

src = the supplement of paper PMC6555819
